measured.on: human ALX receptor (Homo sapiens)
Sequence (P25090 1-351): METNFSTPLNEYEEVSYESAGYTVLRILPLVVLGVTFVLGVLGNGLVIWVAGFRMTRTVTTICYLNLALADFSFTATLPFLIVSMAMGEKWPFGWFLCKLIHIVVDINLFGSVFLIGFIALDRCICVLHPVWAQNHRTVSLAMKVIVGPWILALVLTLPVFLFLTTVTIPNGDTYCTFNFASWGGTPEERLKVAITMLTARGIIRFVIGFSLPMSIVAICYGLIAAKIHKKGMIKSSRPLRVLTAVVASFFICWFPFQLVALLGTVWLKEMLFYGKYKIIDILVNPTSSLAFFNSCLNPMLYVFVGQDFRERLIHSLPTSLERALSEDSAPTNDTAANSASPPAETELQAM
measurement.description: Intracellular calcium measurements (FLIPR), ALX receptor agonistic activity
experimental.setup: HEK293-hALXR-Ga16 cells, calcium flux, normalized to WKYMVm 10 nM; read-out: EC50 (agonistic activity with respect to the ALX receptor)
pEC50: −log10 of the molar value.
assay.readout: pEC50

[[record]]
smiles_repr = "Cc1nc(C(=O)Nc2cnn(Cc3nc(C(C)(F)F)cs3)n2)c(-c2cccc(Cl)c2)o1"
assay_readout = "pEC50"
numeric_value = 8.25


A: Cc1nc(C(=O)Nc2cnn(Cc3nc(C(C)(F)F)cs3)n2)c(-c2ccccc2)o1
B: CC(F)(F)c1csc(Cn2ncc(NC(=O)c3ncoc3-c3cccc(Cl)c3)n2)n1
C: CC(F)(F)c1csc(Cn2ncc(NC(=O)c3ncoc3-c3ccc(F)cc3)n2)n1
Prompt: Give the ascending ranking of the items by reported pEC50. Write out the labels following the order that was asked for.
Completion: C, B, A
(C: 6.66, B: 7.34, A: 8.20)

----------
measured.on: human ALX receptor (Homo sapiens, UniProt P25090)
measurement.description: Intracellular calcium measurements (FLIPR), ALX receptor agonistic activity
experimental.setup: HEK293-hALXR-Ga16 cells, calcium flux, normalized to WKYMVm 10 nM; read-out: EC50 (agonistic activity with respect to the ALX receptor)
assay.readout: EC50 (nM)

[[record]]
compound = "Cc1nc(C(=O)Nc2cnn(Cc3nc(C(C)(F)F)co3)n2)c(-c2ccc(F)c(N(C)C)c2)o1 [Example 36]"
numeric_value = 77

[[record]]
compound = "CC(F)(F)c1ccc(Cn2ncc(NC(=O)c3ncoc3-c3cccc(F)c3)n2)o1 [Example 11]"
numeric_value = 9.9


A: Cc1cccc(-c2ocnc2C(=O)Nc2cnn(Cc3nc(C(C)(F)F)cs3)n2)c1 [Example 17]
B: CC(F)(F)c1ccc(Cn2ncc(NC(=O)c3ncoc3-c3cccc(Cl)c3)n2)o1 [Example 7]
Prompt: Please state the entry with greater EC50 among A and B . Indicate your choice by writing its label.
Completion: B
(B: 17 nM, A: 11 nM)

Reference source for all entries: patent US8580831B2
